These measurements were taken from patent US20220281825A1.

Test system: native replicating Tacaribe (TCRV) virus
assay: microbe, parasite or virus in culture
Format: cell-based
measurement.parameters: Mammarenavirus tacaribeense, Vero, 120 h, read-out: TCRV EC50 uM
property.label: EC50 (µM)
The reply should be a number in µM, with the unit left off.

Q) Reported EC50 for native replicating Tacaribe (TCRV) virus, given CC(C)Oc1ccc(-c2cnc3ccc(-c4ccc(C(C)(C)O)cc4)cn23)cc1 ?
A) 0.003

Q) Reported EC50 for native replicating Tacaribe (TCRV) virus, given CC(C)Oc1ccc(-n2cnc3ccc(-c4ccc5[nH]ccc5c4)cc32)cc1 ?
A) 0.01

Q) Reported EC50 for native replicating Tacaribe (TCRV) virus, given CC(C)Oc1ccc(-n2cnc3ccc(-c4ccc(C(C)(C)O)cc4)cc32)cc1 ?
A) 0.023

---

Assignment: determine reported CC50 for the given molecules.
assay: in vitro
measurement.parameters: African green monkey
The reply should be a number in µM, with the unit left off.

Q) So what's the measured CC50 for this one? COc1ccc(-n2cnc3ccc(-c4cccc(OC)c4)cc32)cc1
A) 9.72

Q) So what's the measured CC50 for this one? COc1ccc(-n2cnc3ccc(-c4ccc(C(C)C)cc4)cc32)cc1
A) 25.6

Q) So what's the measured CC50 for this one? CC(C)Oc1ccc(-c2ccc3ncn(-c4ccc5[nH]ccc5c4)c3c2)cc1
A) 3.86

Q) So what's the measured CC50 for this one? CC(C)Oc1ccc(-c2cnc3ccc(-c4ccc(C5(O)CCC5)cc4)cn23)cc1
A) 3.97

Q) So what's the measured CC50 for this one? COc1ccc(-n2cnc3ccc(-c4ccc(O)cc4)cc32)cc1
A) 1.27

Q) So what's the measured CC50 for this one? CC(C)Oc1ccc(-c2cnc3ccc(-c4ccc(C(C)(C)O)cc4)cn23)cc1
A) 7.52

---

Test system: JUNV-p
assay: organism not typed
Type: cell-based, Junin (JUNV)
measurement.parameters: Vero, 24 h, read-out: JUNV-p EC50 (nM)
Parameter class (string): assigned from measured EC50. Ranges: bin 1: < 2 nM; bin 2: ≥ 2 nM and < 10 nM; bin 3: ≥ 10 nM

Q) Exercise: read the entry CC(C)Oc1ccc(-n2cnc3cnc(-c4ccc(C(C)(C)O)cc4)cc32)cc1 [Example B5] and state which class it falls under.
A) bin 3

Q) Exercise: read the entry COc1ccc(-n2cnc3ccc(-c4ccc(N5CCOCC5)cc4)cc32)cc1 [Example A16] and state which class it falls under.
A) bin 3

Q) Exercise: read the entry CC(C)Oc1ccc(-c2ccc3ncc(-c4ccc(OCC5CC5)cc4)n3c2)cc1 [Example C33] and state which class it falls under.
A) bin 2

Q) Exercise: read the entry CC(C)Oc1ccc(-c2ccc3ncc(-c4ccc(C(F)F)cc4)n3c2)cc1 [Example C36] and state which class it falls under.
A) bin 3

Q) Exercise: read the entry CC(C)Oc1ccc(-c2ccc3ncc(-c4ccc(OCCN5CCOCC5)cc4)n3c2)cc1 [Example C43] and state which class it falls under.
A) bin 3

Q) Exercise: read the entry CC(C)Oc1ccc(-c2ccc3cnc(-c4ccc(OC(C)C)cc4)n3c2)cc1 [Example D17] and state which class it falls under.
A) bin 3

Q) Exercise: read the entry CC(C)Oc1ccc(-n2cnc3ccc(-c4ccc(C(C)(C)O)cc4)nc32)cc1 [Example B1] and state which class it falls under.
A) bin 2

Q) Exercise: read the entry COc1ccc(-n2cnc3ccc(-c4ccc(C(C)(C)O)cc4)cc32)cc1 [Example A8] and state which class it falls under.
A) bin 2

Q) Exercise: read the entry CC(C)Oc1ccc(-c2ccc3cnn(-c4ccc(OC(C)C)cc4)c3c2)cc1 [Example D1] and state which class it falls under.
A) bin 3

Q) Exercise: read the entry COc1ccc(-n2cnc3ccc(-c4ccc(S(C)(=O)=O)cc4)cc32)cc1 [Example A11] and state which class it falls under.
A) bin 3

Q) Exercise: read the entry CC(=O)c1ccc(-c2ccc3ncn(-c4ccc5[nH]ccc5c4)c3c2)cc1 [Example A28] and state which class it falls under.
A) bin 2

Q) Exercise: read the entry COCCOc1ccc(-c2cnc3ccc(-c4ccc(OC(C)C)cc4)cn23)cc1 [Example C42] and state which class it falls under.
A) bin 2

Q) Exercise: read the entry COc1ccc(-n2cnc3ccc(-c4cccc(OC)c4)cc32)cc1 [Example A6] and state which class it falls under.
A) bin 3

Q) Exercise: read the entry CC(C)Oc1ccc(-n2cnc3cnc(-c4ccc5[nH]ccc5c4)cc32)cc1 [Example B7] and state which class it falls under.
A) bin 3

Q) Exercise: read the entry CC(C)Oc1ccc(-n2cnc3ccc(-c4ccc5[nH]ccc5c4)cc32)cc1 [Example A24] and state which class it falls under.
A) bin 1

Q) Exercise: read the entry CC(C)Oc1ccc(-c2ccc3ncc(-c4ccc(C(=O)O)cc4)n3c2)cc1 [Example C45] and state which class it falls under.
A) bin 3

Q) Exercise: read the entry CC(C)Oc1ccc(-c2cnc3ccc(-c4ccc5cc[nH]c5c4)cn23)cc1 [Example C11] and state which class it falls under.
A) bin 2

Q) Exercise: read the entry CCOC(=O)c1nc2ccc(-c3ccc(OC(C)C)cc3)cn2c1-c1ccc(OC(C)C)cc1 [Example D20] and state which class it falls under.
A) bin 3

Q) Exercise: read the entry CC(C)Oc1ccc(-c2ccc3nc(C#N)c(-c4ccc(OC(C)C)cc4)n3c2)cc1 [Example D23] and state which class it falls under.
A) bin 2

Q) Exercise: read the entry CC(C)Oc1ccc(-c2cnc3ncc(-c4ccc5[nH]ccc5c4)n3c2)cc1 [Example D16] and state which class it falls under.
A) bin 1

Q) Exercise: read the entry CC(C)Oc1ccc(-n2cnc3ccc(-c4ccc5[nH]ccc5c4)nc32)cc1 [Example B3] and state which class it falls under.
A) bin 1

Q) Exercise: read the entry CC(=O)c1ccc(-c2ccc3nnn(-c4ccc(OC(C)C)cc4)c3c2)cc1 [Example B14] and state which class it falls under.
A) bin 1

Q) Exercise: read the entry CC(C)Oc1ccc(-c2cnc3ccc(-c4ccc(C(C)(C)O)cc4)cn23)cc1 [Example C1] and state which class it falls under.
A) bin 1

Q) Exercise: read the entry Cc1cc2nnn(-c3ccc(OC(C)C)cc3)c2cc1-c1ccc(OC(C)C)cc1 [Example B15] and state which class it falls under.
A) bin 1

Q) Exercise: read the entry Cc1cc2ncn(-c3ccc(OC(C)C)cc3)c2cc1-c1ccc(OC(C)C)cc1 [Example A30] and state which class it falls under.
A) bin 1

Q) Exercise: read the entry COc1ccc(-c2ccc3ncn(-c4ccc(OC)cc4)c3c2)cc1 [Example A3] and state which class it falls under.
A) bin 3

Q) Exercise: read the entry CC(C)Oc1ccc(-c2ccc3nc(C(N)=O)c(-c4ccc(OC(C)C)cc4)n3c2)cc1 [Example D22] and state which class it falls under.
A) bin 3

Q) Exercise: read the entry COc1ccc(-n2cnc3ccc(-c4ccc(C#N)cc4)cc32)cc1 [Example A4] and state which class it falls under.
A) bin 3

Q) Exercise: read the entry CC(C)Oc1ccc(-c2ccc3nc(C(=O)O)c(-c4ccc(OC(C)C)cc4)n3c2)cc1 [Example D21] and state which class it falls under.
A) bin 3

Q) Exercise: read the entry CC(C)Oc1ccc(-n2ccc3ccc(-c4ccc5[nH]ccc5c4)cc32)cc1 [Example D5] and state which class it falls under.
A) bin 3

Q) Exercise: read the entry CC(C)Oc1ccc(-n2cnc3ccc(-c4ccc(N5CCOCC5)cc4)cc32)cc1 [Example A21] and state which class it falls under.
A) bin 2

Q) Exercise: read the entry CC(C)Oc1ccc(-c2coc3ccc(-c4ccc5[nH]ccc5c4)cc23)cc1 [Example D9] and state which class it falls under.
A) bin 3

Q) Exercise: read the entry COc1ccc(-n2cnc3ccc(-c4ccc5[nH]ccc5c4)cc32)cc1 [Example A12] and state which class it falls under.
A) bin 3

Q) Exercise: read the entry CC(C)Oc1ccc(-c2ccc3ncc(-c4ccc(C5CC5)cc4)n3c2)cc1 [Example C30] and state which class it falls under.
A) bin 1

Q) Exercise: read the entry CC(C)Oc1ccc(-c2cnc3ccc(-c4ccc5[nH]ncc5c4)cn23)cc1 [Example C10] and state which class it falls under.
A) bin 3

---

Test system: JUNV
assay: organism not typed
Assay type: cell-based, Junin (JUNV)
measurement.parameters: 120 h, read-out: JUNV EC50 uM
property.label: EC50 (µM)
The reply should be a number in µM, with the unit left off.

Q) So what's the measured EC50 for this one? CC(C)Oc1ccc(-c2cnc3ccc(-c4ccc(C(C)(C)O)cc4)cn23)cc1
A) 0.055

Q) So what's the measured EC50 for this one? CC(C)Oc1ccc(-n2cnc3ccc(-c4ccc5[nH]ccc5c4)cc32)cc1
A) 0.56

Q) So what's the measured EC50 for this one? CC(C)Oc1ccc(-n2cnc3ccc(-c4ccc(C(C)(C)O)cc4)cc32)cc1
A) 0.115

---

System: LASV-p
assay: organism not typed
Type: cell-based, Lassa (LASV)
measurement.parameters: Vero, 24 h, read-out: LASV-p EC50 (nM)
property.label: log10 EC50 (log10 of the value in nM)
Note the log scale: values are log10 of EC50 expressed in nM.

Q) So what's the measured log10 EC50 for this one? CC(C)Oc1ccc(-c2cnc3ccc(-c4ccc(C5(O)CCC5)cc4)cn23)cc1
A) 0.06

Q) So what's the measured log10 EC50 for this one? CC(C)Oc1ccc(-c2cnc3ccc(-c4ccc5[nH]ncc5c4)cn23)cc1
A) 0.66

Q) So what's the measured log10 EC50 for this one? CC(C)Oc1ccc(-c2cnc3ccc(-c4ccc(C5(O)CC5)cc4)cn23)cc1
A) -0.18

Q) So what's the measured log10 EC50 for this one? CC(C)Oc1ccc(-n2cnc3ccc(-c4ccc5[nH]ccc5c4)nc32)cc1
A) 0.00

Q) So what's the measured log10 EC50 for this one? CC(=O)c1ccc(-c2ccc3cnn(-c4ccc(OC(C)C)cc4)c3c2)cc1
A) 0.85
